tested on: recombinant Amaranthus tuberculatus PPO2 ΔG210; type: biochemical
Experimental readout: Resistance factor ΔG210 (IC50 mutant / IC50 sensitive PPO2)
Answer with the value's number alone.

Example entries and their recorded answers appear below.
CCOc1cc(Oc2ccc(C(F)(F)F)cc2Cl)ccc1[N+](=O)[O-]; 982
COC(=O)CSc1cc(/N=c2\sc(=O)n3n2CCCC3)c(F)cc1Cl; 94
CCOC(=O)C(C)OC(=O)c1cc(Oc2ccc(C(F)(F)F)cc2Cl)ccc1[N+](=O)[O-] (stereo not shown); 18271
C#CCN(C)c1c(C#N)cnn1-c1nn2c(c1Cl)CCCC2; 782
Cc1nn(-c2cc(CC(Cl)C(=O)O)c(Cl)cc2F)c(=O)n1C(F)F (stereo not shown); 3957
CC(C)Oc1cc(-n2nc(C(C)(C)C)oc2=O)c(Cl)cc1Cl; 151

Lookup: Enter reported Resistance factor ΔG210 (IC50 mutant / IC50 sensitive PPO2) observed with recombinant Amaranthus tuberculatus PPO2 ΔG210 for C=CCOC(=O)C(C)(C)OC(=O)c1cc(-n2c(=O)cc(C(F)(F)F)n(C)c2=O)ccc1Cl
Found: 17578

Lookup: What reported Resistance factor ΔG210 (IC50 mutant / IC50 sensitive PPO2) corresponds to CCOC(=O)COc1cc(-c2nn(C)c(OC(F)F)c2Cl)c(F)cc1Cl on recombinant Amaranthus tuberculatus PPO2 ΔG210?
Found: 1083

Lookup: Param readout= Resistance factor ΔG210 (IC50 mutant / IC50 sensitive PPO2); system= recombinant Amaranthus tuberculatus PPO2 ΔG210; entry= C#CCN1C(=O)COc2cc(F)c(N3C(=O)C4=C(CCCC4)C3=O)cc21 ; returns value.
Found: 3157
